# Test system: SK-MEL-5 melanoma
# method-summary: NCI-60 one-dose screen, 48 h
# study-conditions: 10 µM unless noted
# Description: Growth inhibition of the SK-MEL-5 human tumor cell line is measured as a screen for anti-cancer activity. Cells are grown in 96 well plates and exposed to the test compound for 48 hours. Compounds are tested at a single concentration, which is 10^-5 M for most compounds. The reported endpoint is percent growth (GI% or GIPRCNT), where numbers from 0 - 100% represent growth inhibition, and numbers from -100% - 0 represent cell death. For example, a value of 40 represents 60% growth inhibition. […]
The panel holds about 83,000 compounds, 20% with a hit somewhere; the sample as a whole holds those more often. Active and inactive are the calls of the source. Rule for the calls: active = growth percent below 10; inactive = the rest.
Possible outcomes: true for active, false for inactive

{"compound": "O=c1ccn(Cc2cn(-c3c4ccccc4nc4ccccc34)nn2)c(=O)[nH]1", "test-target": "SK-MEL-5 melanoma", "assigned-class": "false"}
{"compound": "CC1=C([Se]CC(OC(=O)[C@@H](CSSC(C)(C)C)NC(=O)OC(C)(C)C)C(=O)NC(C)(C)C)C(=O)c2ccccc2C1=O (stereo not given in full)", "test-target": "SK-MEL-5 melanoma", "assigned-class": "true"}
{"compound": "Nc1ccccc1-c1cc2c(c3c1[nH]c1ccccc13)CCCCC2", "test-target": "SK-MEL-5 melanoma", "assigned-class": "false"}
{"compound": "c1ccc(Nc2cc(-c3cccnc3)[nH]n2)cc1", "test-target": "SK-MEL-5 melanoma", "assigned-class": "false"}
{"compound": "Cc1ccc(-c2nc(N3CCN(C(=O)Nc4ccc(Cl)c(C(F)(F)F)c4)CC3)c3ccccc3n2)cc1", "test-target": "SK-MEL-5 melanoma", "assigned-class": "false"}
{"compound": "Cc1ccc(C2CC(c3ccc(Nc4ccnc5cc(Cl)ccc45)cc3)=NN2C=O)cc1 (stereo not given)", "test-target": "SK-MEL-5 melanoma", "assigned-class": "false"}
{"compound": "CC/C=C\\C[C@@H](O)C/C=C1/C(=O)C=C[C@H]1C/C=C\\CCCC(=O)OC", "test-target": "SK-MEL-5 melanoma", "assigned-class": "true"}
{"compound": "O=c1[nH][n+](-c2ccc(Br)cc2)no1", "test-target": "SK-MEL-5 melanoma", "assigned-class": "false"}
{"compound": "COc1ccc(C(=O)n2nc(-c3ccccc3)nc2N)cc1OC", "test-target": "SK-MEL-5 melanoma", "assigned-class": "false"}
{"compound": "COC(=O)C(Cc1ccccc1)NC(=O)NC(=O)NC(=O)CI (stereo not given)", "test-target": "SK-MEL-5 melanoma", "assigned-class": "false"}

---

# Tested on: UO-31 renal
# method-summary: NCI-60 one-dose screen, 48 h (100 = growth as untreated, 0 = no growth, -100 = all killed)
# study-conditions: 10 µM unless noted
This is part of a sample that, as a whole, favours compounds with a hit. Of some 83,000 tested, about 20% had one in any assay.
Param threshold (70%) applies to growth; output Y when value >= threshold, N when value < threshold.

{"smiles-repr": "Cc1ccc2c(n1)C(=O)C(Cl)=C(Nc1ccccc1C(C)C)C2=O", "test-target": "UO-31 renal", "assigned-class": "N"}
{"smiles-repr": "O=C(Nc1ccc(OS(=O)(=O)c2ccc(F)cc2)cc1)c1ccc(Cl)cc1", "test-target": "UO-31 renal", "assigned-class": "Y"}
{"smiles-repr": "COc1cc(CCC[P+](c2ccccc2)(c2ccccc2)c2ccccc2)c(OC)c2c1OCO2", "test-target": "UO-31 renal", "assigned-class": "Y"}
{"smiles-repr": "COc1ccc(N)c(N)c1", "test-target": "UO-31 renal", "assigned-class": "Y"}
{"smiles-repr": "CN(C)CCCNc1nc2ccccc2c2c(=O)c3cc(F)ccc3sc12", "test-target": "UO-31 renal", "assigned-class": "N"}
{"smiles-repr": "COC(=O)[C@H](C)NC(=O)NC(=O)NC(=O)CI", "test-target": "UO-31 renal", "assigned-class": "Y"}
{"smiles-repr": "C=C1C(=O)O[C@H]2[C@H]1CC/C(COC(=O)NCCOCCOCC(=O)Nc1ccc(OC)c(C(N)=O)c1O)=C\\CC[C@@]1(C)O[C@@H]21", "test-target": "UO-31 renal", "assigned-class": "Y"}
{"smiles-repr": "Cc1nn(-c2ccccc2)c(-n2ccnc2)c1/C=N/Nc1nc(-c2ccc(F)cc2)cs1", "test-target": "UO-31 renal", "assigned-class": "N"}
{"smiles-repr": "O=C(Cc1ccc2c(c1)OCCO2)Nc1nc2ccc(F)cc2s1", "test-target": "UO-31 renal", "assigned-class": "N"}
{"smiles-repr": "Fc1cc(-c2nnc3sc(-c4ccc(Cl)cc4Cl)nn23)c(Cl)cc1Cl", "test-target": "UO-31 renal", "assigned-class": "Y"}
{"smiles-repr": "NS(=O)(=O)c1ccc(-n2nc(-c3ccc(Cl)cc3)c3ccccc3c2=O)cc1", "test-target": "UO-31 renal", "assigned-class": "N"}
{"smiles-repr": "NC1CCN(c2nc(Nc3cccc(C(F)(F)F)c3)c3c(=O)[nH]ccc3n2)CC1", "test-target": "UO-31 renal", "assigned-class": "N"}
{"smiles-repr": "Cc1ccc(S(=O)(=O)N/N=C/C2(c3ccccc3)CC2)cc1", "test-target": "UO-31 renal", "assigned-class": "Y"}
{"smiles-repr": "COc1cc(Nc2nc(NCCN)nc3cc[nH]c(=O)c23)cc(OC)c1", "test-target": "UO-31 renal", "assigned-class": "Y"}
{"smiles-repr": "C[N+]1=C(/C=C/c2ccc(O)c3ncccc23)C(C)(C)c2ccccc21", "test-target": "UO-31 renal", "assigned-class": "N"}

---

# Test system: 786-0 renal
# method-summary: NCI-60 one-dose screen, 48 h
# study-conditions: 10 µM unless noted
The panel holds about 83,000 compounds, 20% with a hit somewhere; the sample as a whole holds those more often. The source made the active and inactive calls. How the source made its calls: active means growth percent below 10; inactive means the rest.
Classes used: YES = active, NO = inactive

{"compound": "NS(=O)(=O)c1ccc(-n2nc(-c3ccc(Cl)cc3)c3ccccc3c2=O)cc1", "assigned-class": "NO"}
{"compound": "O=C(CCc1nnc(-c2c(Cl)cccc2Cl)o1)c1nc2ccccc2[nH]1", "assigned-class": "NO"}
{"compound": "CCCCCCN1C(=O)/C(=c2\\sc3n(c2=O)C2C(NN=3)N(CC)C(=O)N2CC)c2ccccc21 (centres undefined)", "assigned-class": "YES"}
{"compound": "COc1ccc(OC)c(/C=C/C(=O)N/N=C/c2ccc(Cl)cc2)c1", "assigned-class": "NO"}

---

Reported growth values follow for various compounds
# System: SN12C renal
# method-summary: NCI-60 one-dose screen, 48 h (100 = growth as untreated, 0 = no growth, -100 = all killed)
# study-conditions: 10 µM unless noted
Compounds without any hit were thinned out: in the full panel of roughly 83,000, 20% have a hit.

{"smiles-repr": "O=C(O)c1cn(C2CC2)c2cc(N3CCN(C(=O)Nc4nc(-c5ccccc5)cs4)CC3)c(F)cc2c1=O", "unit-info": "%", "growth": 4.91}
{"smiles-repr": "Cc1cc(Cl)ccc1NS(=O)(=O)c1ccc(-c2cnc(C3CC3)o2)cc1", "unit-info": "%", "growth": 46.7}
{"smiles-repr": "COc1ccc(C(=O)n2nc(-c3ccccc3)nc2N)cc1OC", "unit-info": "%", "growth": 90.5}
{"smiles-repr": "Cc1cc2[nH]c(=O)c3c4ncccc4cn3c2cc1C", "unit-info": "%", "growth": 39.3}

---

# System: HOP-92 NSCLC
# method-summary: NCI-60 one-dose screen, 48 h
# study-conditions: 10 µM unless noted
Compounds without any hit were thinned out: in the full panel of roughly 83,000, 20% have a hit. Activity calls are given as the source filed them. Rule for the calls: active = growth percent below 10; inactive = the rest.
Outcomes: label 1 = active, label 0 = inactive

{"compound": "O=c1c2cc(F)cc(Cl)c2sc2c(NCCCNCCO)nc3ccccc3c12", "assigned-class": "label 0"}
{"compound": "COc1nc2ccc(C)cc2cc1-c1nc2c(cnn2-c2ccccc2)c(=O)[nH]1", "assigned-class": "label 0"}
{"compound": "COc1ccc(-c2conc2-c2ccccc2)cc1", "assigned-class": "label 0"}
{"compound": "CCOC(=O)C1=C(N)Oc2c(sc3c(CC)cccc23)C1c1ccc(F)cc1 (stereo unspecified)", "assigned-class": "label 0"}
{"compound": "CCCCCCCCCCCCCCCCCC1OCC(COC(=O)O[C@]2(CC)C(=O)OCc3c2cc2n(c3=O)Cc3cc4ccccc4nc3-2)O1 (stereo partly specified)", "assigned-class": "label 0"}
{"compound": "COc1ccc(-c2ncnc3c2ncn3CC#CCCl)cc1", "assigned-class": "label 1"}

---

# Tested on: EKVX NSCLC
# method-summary: NCI-60 one-dose screen, 48 h (100 = growth as untreated, 0 = no growth, -100 = all killed)
# study-conditions: 10 µM unless noted
The panel holds about 83,000 compounds, 20% with a hit somewhere; the sample as a whole holds those more often.
growth values for the compounds below.

{"compound": "CCOC(=O)c1c2c(n(-c3ccc(C#N)cc3)c1-c1ccccc1)C=CCC2", "growth, %": 93.2}
{"compound": "CCOC(=O)c1cn2ncnc(Oc3ccc(NC(=O)NCCN4CCN(C)CC4)c(Cl)c3)c2c1C", "growth, %": 66.3}
{"compound": "NCCCNc1nc2ccccc2c2c(=O)c3cc(C(F)(F)F)ccc3sc12", "growth, %": 71.6}
{"compound": "CSc1nc2ccc(C)cc2cc1/C=N/O", "growth, %": 67.8}
{"compound": "COc1ccccc1/C=C1\\Oc2cc(OCCN3CCC(Cc4ccccc4)CC3)ccc2C1=O", "growth, %": 86}
{"compound": "CCn1cnc2c1c(=O)[nH]c(=O)n2CC1CCC(CNS(=O)(=O)c2ccc(OC3CCOCC3)c(F)c2)CC1 (centres undefined)", "growth, %": 68.1}
{"compound": "O=[N+]([O-])c1ccc(Oc2nc(Nc3ccc(O[C@H]4CO[C@H]5[C@@H]4OC[C@@H]5O)c(Cl)c3)ncc2F)c(Cl)c1", "growth, %": 43.8}
{"compound": "O=C1CCC(C(=O)NCCNCCNC(=O)C2CCC(=O)N2)N1 (centres undefined)", "growth, %": 100}
{"compound": "COC(=O)/C=C1\\S/C(=N\\Nc2ccc([N+](=O)[O-])cc2[N+](=O)[O-])N(C2CCCCC2)C1=O", "growth, %": 78.5}
{"compound": "COc1ccc(OC)c(/C=C/C(=O)N/N=C/c2ccccc2)c1", "growth, %": 64}
{"compound": "COC(=O)[C@H](C)NC(=O)NC(=O)NC(=O)CI", "growth, %": 107}
{"compound": "Cc1nc2ccccc2n1-c1ncnc2c1CC(C)c1ccccc1N2C (centres undefined)", "growth, %": 92.7}
{"compound": "Cc1onc2c(-c3ccccc3)n[nH]c(=O)c12", "growth, %": 62.8}
{"compound": "Cc1ccccc1C(=O)NN", "growth, %": 108}
